target: SARS-CoV-2 Spike (S) trimer (SARS-CoV-2, UniProt P0DTC2 16-1213); experiment: ELISA on coated S trimer, 1:50
OD 450 nm under 0.5 OD gets Condition met, anything at or over 0.5 OD gets Condition not met.

Solved entries (count: 5):
# binder, group
measured = [
    ("AB-009325 (antibody, V domains shown) VH: QVQLVESGGGVVQPGRSLRLSCAASGFTFNNYGMHWVRQAPGKGLEWVALISYEGSLKYYGDSVRGRFTVSRDNSRNTLYLQMNSLRVDDTAVYYCAKAGGIFAIHYYGMNVWGQGTTVTVSS VL: QSVLTQPPSVSAAPGQKVTISCSGSSSNIGKNYVSWYRQFPGTAPKLLIYDNNKRPSGIPDRFSGSKSDTSATLGITGLQTGDEADYYCVTWDSSLSAGVFGGGTKLTVL", "Condition not met"),
    ("AB-009343 (antibody, V domains shown) VH: QAQLVESGGGVVQPGRSLRLSCAASGFTFNNHGMHWVRQVPGKGLEWVAVISYEGSKKDYADSVKGRFSISRDNSKQTVYLQMNSLRVEDTAVYYCAKDAAIFMIYPSRYFDLWGRGTLLTVSS VL: SYELTQPPSMSVSPGQTASITCSGYILGDVSASWYQQKPGQSPVLIIYQDTKRPSGIPDRFSGSDSGNTATLTISGTQATDEADYYCQAWDSRTHVVFGGGTKLTVL", "Condition met"),
    ("AB-009106 (antibody, V domains shown) VH: QVQLAQSGAEVKRPGASVKVSCKASGFDLTTYGVGWVRQAPGQGLEWMGWISGSSGDTHYAQQFQDRVTMTTDTPTSTAYMELRSLRSDDTAVYYCVRENIAHYGSRTFLVRYYRGMDVWGQGTTVTVAS VL: QSALTQPASVSGSPGQSITITCTGSSSDIGGFDFVSWYQQYPGKAPKLVISEVTNRPSGVSIRFSGSKSGNTASLTISGLQAEDEADYYCSSYASSYPTTNTRVFGTGTKVTVL", "Condition met"),
    ("AB-009363 (antibody, V domains shown) VH: EVQLLESGGGLVQPGGSLRLSCAASGFTFSSFAMTWIRQAPGKGLEWISAIGGDGGATYYVDSIKGRFTISRDNSKNTVYLHMNGLRVEDTAVYYCATPSPTRYSWGQGTLVTVSS VL: DIVMTQSPDSLAVSLGERATLNCKSSQSVLYSSNNKNYLAWYQQKPGQPPKLLFYWASTRQSGVPDRFSGSGSGTDFTLTISSLQAEDGAVYYCQQYHKTPHTFGQGTKLEIK", "Condition not met"),
    ("AB-009291 (antibody, V domains shown) VH: EVHLLESGGGLVQPGGSLRLSCAASGFTFTTYAMFWVRQAPGKGLEWVSAINAGGAKTHYADSVRGRFTISRDNSKSTLYLHMDRLRVGDTAIYYCAKVPSYIYDSRDDYLDFWGQGTLVTVSS VL: EIVLTQSPATLSLSPGERATLSCRASQSVSSYLAWYQQRPGQAPRLLIYDASSRATGIPVRFSGSGSGTDFTLTISSLEPEDFAVYYCQQRSDWPLLTFGGGTKVEIK", "Condition not met"),
]

Lookup: Threshold test, OD 450 nm < 0.5 OD: AB-009335 (antibody, V domains shown) VH: QVQLQESGPGLVKPSETLSLTCTVSGGSISSHYWSWIRQPPGKGLEWIGYIYYSGSTNYNPSLKSRVTISVDTSKNQFSLKLSSVTAADTAVYYCARVRREWLAAYFYYGMDVWGQGTTVTVSS VL: DIQMTQSPSSLSASVGDRVTITCRASQGISNYLAWYQQKPGKVPKLLIYAASTLQSGVPSRFSGSGSGTDFTLTISSLQPEDVATYYCQKYNSAPLTFGGGTKVEIK
Found: Condition not met

Lookup: Threshold test, OD 450 nm < 0.5 OD: AB-009329 (antibody, V domains shown) VH: QLQLQESGPGLVKPSETLSLTCTVSGGSISSSSYYWGWIRQPPGKGLEWIGSIYYSGSTYYNPSLKSRVTISVDTSKNQFSLKLSSVTAADTAVYYCARHKMGWLQFAGWFDPWGQGTLVTVSS VL: SSELTQDPAVSVALGQTVRITCQGDSLRSYYASWYQQKPGQAPVLVIYGKNNRPSGIPDRFSGSSSGNTASLTITGAQAEDEADYYCNSRDSSGNHWVFGGGTKLTVL
Found: Condition met

Lookup: Threshold test, OD 450 nm < 0.5 OD: AB-009110 (antibody, V domains shown) VH: QVQLVQSGAEVKEPGASVKVSCNASGYIFTSYGISWVRQAPGQGLEWVGWISGNNGNTNYAQKFQGRVTLTTDTSTSTAYLELRSLTSADTGVYFCARARLPSAYWGPGTLLTVSS VL: EILLTQSPATLSVSPGERGSLSCRASQSVGTNLAWYQQKPGQAPRLLIYGASARATGIPARFSGSGSGTEFTLTISSLQSEDFGVYYCQQYNDWPPWTFGQGTKVEIK
Found: Condition met

Lookup: Threshold test, OD 450 nm < 0.5 OD: AB-009357 (antibody, V domains shown) VH: QLQLQESGPGLVKPSETLSLTCTVSGGSISSSSYYWGWIRQPPGKGLEWIGSIYYSGSTYYNPSLKSRVTISVDTSKNQFSLKLSSVTAADTAVYYCARHPLSSITIFGVVKREYYFDYWGQGTLVTVSS VL: DIQMTQSPSSVSASVGDRVTITCRASQGISSWLAWYQQKPGKAPKLLIYAASSLQSGVPSRFSGSGSGTDFTLTISSLQPEDFATYYCQQANSFPLLFGGGTKVEIK
Found: Condition not met

Lookup: Threshold test, OD 450 nm < 0.5 OD: AB-009361 (antibody, V domains shown) VH: EVQLVESGGGLAQPGGTLRLSCTGYGFIFNNYGLTWVRQAPGKGLEWLSVLSGSSYIKYEADSVRGRFTISRDNSKNTLYLEMNSLTAEDTAVYYCARKGVGSQDYGLDVWGQGTTVIVSS VL: QSVLAQPPSASETPGQSVTISCSGSTSNIGSNFVYWYQQLPGTAPKLLIYRNTQRPSGVPDRFSGSKSATSASLAISGLRPEDEADYYCAAWDDSLSGGVFGTGTKVTVL
Found: Condition not met

The values you see were collected from patent US20240327505A1.
